target: GDP-bound KRAS wild-type protein (Homo sapiens); test: Binding to KRAS by surface plasmon resonance (SPR), dissociation constant KD; conditions: 1:1 binding model
Sequence (P01116 1-188 isoform P01116-2): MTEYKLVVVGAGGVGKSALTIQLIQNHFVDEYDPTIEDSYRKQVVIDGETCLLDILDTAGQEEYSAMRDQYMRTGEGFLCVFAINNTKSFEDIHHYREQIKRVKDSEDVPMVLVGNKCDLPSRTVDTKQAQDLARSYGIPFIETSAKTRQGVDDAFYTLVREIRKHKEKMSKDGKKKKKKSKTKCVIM
MEASUREMENT_NAME: Kd

1. CCC(CC)[C@H]1C(=O)N(C)[C@H](C(=O)N(C)C)CC(=O)N(C)[C@@H](COC)C(=O)N[C@@H]([C@@H](C)CC)C(=O)N(C)CC(=O)N(C)[C@H]2C/C=C\CCN(C2=O)[C@@H](Cc2ccc(C(F)F)cc2)C(=O)N(C)CC(=O)N[C@@H](CCc2ccc(Cl)c(Cl)c2)C(=O)N2C[C@H](OC3CCCC3)C[C@H]2C(=O)NC2(CC(C)(C)C2)C(=O)N1C: 0.4 nM
2. CCOC[C@H]1C(=O)N[C@@H]([C@@H](C)CC)C(=O)N(C)CC(=O)N(C)[C@H]2C/C=C\CCN(C2=O)[C@@H](Cc2ccc(C)cc2)C(=O)N(C)CC(=O)N[C@@H](CCc2ccc(C(F)(F)F)c(Cl)c2)C(=O)N2C[C@@H](C)C[C@H]2C(=O)NC2(CC(C)(C)C2)C(=O)N(C)[C@@H](C2CCCC2)C(=O)N(C)[C@H](C(=O)N(C)CC)CC(=O)N1C: 0.17 nM
3. CCOC[C@H]1C(=O)N[C@@H]([C@@H](C)CC)C(=O)N(C)CC(=O)N(C)[C@H]2C/C=C\CCN(C2=O)[C@@H](CC2CCC(F)(F)CC2)C(=O)N(C)CC(=O)N[C@@H](CCc2ccc(C(F)(F)F)c(OC)c2)C(=O)N2C[C@@H](C)C[C@H]2C(=O)NC2(CC(C)(C)C2)C(=O)N(C)[C@@H](C(CC)CC)C(=O)N(C)[C@H](C(=O)N(C)C)CC(=O)N1C: 1.3 nM
